System: Escherichia coli TOP10
runDescription: shrunken log2 fold change of peptide-encoding DNA abundance (4.5 h post-induction vs induction); higher = less antimicrobial activity (less host growth inhibition)
conditionLabel: time post-induction: 4.5 h; library: site-saturation at positions 5, 18, 19, 20
shrunken log2 fold change for assorted sequences

residueCodes: RRIRYRPPRLPRPRPRPWRRPRP
experimentalValue: -0.104

residueCodes: RRIRARPPRLPRPRPRPGKHPRP
experimentalValue: 0.089

residueCodes: RRIRYRPPRLPRPRPRPNCLPRP
experimentalValue: -0.942

residueCodes: RRIRLRPPRLPRPRPRPNTYPRP
experimentalValue: -0.522

residueCodes: RRIRRRPPRLPRPRPRPGTWPRP
experimentalValue: 0.0793

// next item, shrunken log2 fold change requested
Sure, the documented shrunken log2 fold change for `RRIRYRPPRLPRPRPRPETKPRP` is -0.485

---

shrunken log2 fold change for assorted sequences
Test system: Escherichia coli TOP10
runDescription: shrunken log2 fold change of peptide-encoding DNA abundance (4.5 h post-induction vs induction); higher = less antimicrobial activity (less host growth inhibition)
conditionLabel: time post-induction: 4.5 h; library: site-saturation at positions 5, 18, 19, 20
Give your answer as a number; write no unit.

residueCodes: RRIRHRPPRLPRPRPRPVAIPRP
experimentalValue: 2.06
--
residueCodes: RRIRVRPPRLPRPRPRPSFHPRP
experimentalValue: -0.439
--
residueCodes: RRIRYRPPRLPRPRPRPYGSPRP
experimentalValue: -0.843

// next item, shrunken log2 fold change requested
Sure, the documented shrunken log2 fold change for `RRIRVRPPRLPRPRPRPWAPPRP` is 0.0631

---

Test system: Escherichia coli TOP10
runDescription: shrunken log2 fold change of peptide-encoding DNA abundance (4.5 h post-induction vs induction); higher = less antimicrobial activity (less host growth inhibition)
conditionLabel: time post-induction: 4.5 h; library: site-saturation at positions 5, 18, 19, 20
In this scheme, each record receives a class according to its shrunken log2 fold change; the ranges are bottom range (below -0.2), center range (-0.2 to below 0.03), top range (0.03 or more)

A selection of reference data follows.
residueCodes: RRIRVRPPRLPRPRPRPGRCPRP
discreteLabel: top range

residueCodes: RRIRLRPPRLPRPRPRPNVRPRP
discreteLabel: center range

residueCodes: RRIRRRPPRLPRPRPRPVQPPRP
discreteLabel: top range

residueCodes: RRIRNRPPRLPRPRPRPTMLPRP
discreteLabel: bottom range

As a next step, examine the sequence that follows.
Please let me know in which category the item `RRIRWRPPRLPRPRPRPATRPRP` belongs. top range

---

System: Escherichia coli TOP10;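 also: peptides expressed intracellularly from a pBAD plasmid library in pooled LB shake-flask culture, induced with 0.3% L-arabinose, DNA abundance read by NGS, three biological replicates, DESeq2 with apeglm shrinkage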
runDescription: shrunken log2 fold change of peptide-encoding DNA abundance (4.5 h post-induction vs induction); higher = less antimicrobial activity (less host growth inhibition)
conditionLabel: time post-induction: 4.5 h; library: site-saturation at positions 5, 18, 19, 20
testReadout: shrunken log2 fold change
Give your answer as a number; write no unit.

Reference set, count: 5
residueCodes: RRIRERPPRLPRPRPRPFVHPRP
shrunken log2 fold change: -0.435
//
residueCodes: RRIRTRPPRLPRPRPRPQYEPRP
shrunken log2 fold change: 0.00772
//
residueCodes: RRIRWRPPRLPRPRPRPRIAPRP
shrunken log2 fold change: 0.133
//
residueCodes: RRIRYRPPRLPRPRPRPQSSPRP
shrunken log2 fold change: -0.687
//
residueCodes: RRIRFRPPRLPRPRPRPDIAPRP
shrunken log2 fold change: 0.101

Sure, the documented shrunken log2 fold change for `RRIRNRPPRLPRPRPRPWKNPRP` is 0.175

Sure, the documented shrunken log2 fold change for `RRIRFRPPRLPRPRPRPTEMPRP` is -0.105

Sure, the documented shrunken log2 fold change for `RRIRLRPPRLPRPRPRPFCHPRP` is 0.0449
